# credit: ChEMBL document CHEMBL5291721

# target_desc: Alpha-2B adrenergic receptor (Homo sapiens, UniProt P18089); further: assay procedure not described here
# Sequence (P18089 whole entry): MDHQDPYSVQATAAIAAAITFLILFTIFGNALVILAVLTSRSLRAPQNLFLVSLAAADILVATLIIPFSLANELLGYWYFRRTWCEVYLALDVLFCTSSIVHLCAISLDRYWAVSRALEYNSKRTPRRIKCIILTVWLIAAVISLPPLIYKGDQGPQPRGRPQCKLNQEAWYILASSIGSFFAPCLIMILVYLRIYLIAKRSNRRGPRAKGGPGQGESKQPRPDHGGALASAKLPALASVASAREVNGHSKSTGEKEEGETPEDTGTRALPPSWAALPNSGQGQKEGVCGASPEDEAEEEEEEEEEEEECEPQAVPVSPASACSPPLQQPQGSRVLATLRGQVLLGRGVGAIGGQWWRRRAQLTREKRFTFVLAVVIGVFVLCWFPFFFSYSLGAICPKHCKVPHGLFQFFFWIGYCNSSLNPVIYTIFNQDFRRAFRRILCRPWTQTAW
property_label: AC50

Some solved entries appear below for comparison.
| molecule | AC50 |
| --- | --- |
| Cc1ccc(-n2nccn2)c(C(=O)N2CCN(c3nc4cc(Cl)ccc4o3)CC[C@H]2C)c1 | 26 µM |
| CCCCCCOc1ccccc1C(N)=O [EXALAMIDE] | > 30 µM |
| CCCCc1ncc(/C=C(\Cc2cccs2)C(=O)O)n1Cc1ccc(C(=O)O)cc1 | > 10 µM |
| COC(=O)C1=C(C)NC(C)=C(C(=O)OC(C)(C)CN(C)CCC(c2ccccc2)c2ccccc2)C1c1cccc([N+](=O)[O-])c1 (centres undefined) | > 30 µM |
| Cc1cccc(C(C)c2cnc[nH]2)c1C (centres undefined) | 2.1 µM |
| COc1ccc2c3c1O[C@H]1[C@@H](O)CC[C@H]4[C@@H](C2)N(C)CC[C@@]341 [DIHYDROCODEINE] | > 30 µM |
| NS(=O)(=O)Cc1noc2ccccc12 [ZONISAMIDE] | > 10 µM |
| O=C(OCC(O)CO)c1ccccc1Nc1ccnc2cc(Cl)ccc12 (centres undefined) | > 30 µM |

[in] Entry C[C@H](N)[C@H](O)c1cccc(O)c1 has what AC50?
[out] > 10 µM

[in] Entry Cc1c(C(=O)NN2CCCCC2)nn(-c2ccc(Cl)cc2Cl)c1-c1ccc(Cl)cc1 has what AC50?
[out] 23 µM

[in] Entry CCC1(CC)C(=O)NCC(C)C1=O (centres undefined) has what AC50?
[out] > 30 µM

[in] Entry CO[C@@H]1[C@@H](O[C@@H]2O[C@H](C)[C@@H](O[C@H]3C[C@@](C)(O)[C@@H](OC(=O)CC(C)C)[C@H](C)O3)[C@H](N(C)C)[C@H]2O)[C@@H](CC=O)C[C@@H](C)[C@@H](O)/C=C/C=C/C[C@@H](C)OC(=O)C[C@H]1OC(C)=O has what AC50?
[out] > 10 µM

[in] Entry Nc1nc(/C(=C/CC(=O)O)C(=O)N[C@@H]2C(=O)N3C(C(=O)O)=CCS[C@H]23)cs1 has what AC50?
[out] > 30 µM

[in] Entry CN1CCN(C2=Nc3ccccc3Sc3ccc(Cl)cc32)CC1 has what AC50?
[out] 1.3 µM

* * *

Entries annotated with measured AC50
# target_desc: Voltage-gated inwardly rectifying potassium channel KCNH2 (Homo sapiens); further: assay procedure not described here
# Sequence (Q12809 whole entry): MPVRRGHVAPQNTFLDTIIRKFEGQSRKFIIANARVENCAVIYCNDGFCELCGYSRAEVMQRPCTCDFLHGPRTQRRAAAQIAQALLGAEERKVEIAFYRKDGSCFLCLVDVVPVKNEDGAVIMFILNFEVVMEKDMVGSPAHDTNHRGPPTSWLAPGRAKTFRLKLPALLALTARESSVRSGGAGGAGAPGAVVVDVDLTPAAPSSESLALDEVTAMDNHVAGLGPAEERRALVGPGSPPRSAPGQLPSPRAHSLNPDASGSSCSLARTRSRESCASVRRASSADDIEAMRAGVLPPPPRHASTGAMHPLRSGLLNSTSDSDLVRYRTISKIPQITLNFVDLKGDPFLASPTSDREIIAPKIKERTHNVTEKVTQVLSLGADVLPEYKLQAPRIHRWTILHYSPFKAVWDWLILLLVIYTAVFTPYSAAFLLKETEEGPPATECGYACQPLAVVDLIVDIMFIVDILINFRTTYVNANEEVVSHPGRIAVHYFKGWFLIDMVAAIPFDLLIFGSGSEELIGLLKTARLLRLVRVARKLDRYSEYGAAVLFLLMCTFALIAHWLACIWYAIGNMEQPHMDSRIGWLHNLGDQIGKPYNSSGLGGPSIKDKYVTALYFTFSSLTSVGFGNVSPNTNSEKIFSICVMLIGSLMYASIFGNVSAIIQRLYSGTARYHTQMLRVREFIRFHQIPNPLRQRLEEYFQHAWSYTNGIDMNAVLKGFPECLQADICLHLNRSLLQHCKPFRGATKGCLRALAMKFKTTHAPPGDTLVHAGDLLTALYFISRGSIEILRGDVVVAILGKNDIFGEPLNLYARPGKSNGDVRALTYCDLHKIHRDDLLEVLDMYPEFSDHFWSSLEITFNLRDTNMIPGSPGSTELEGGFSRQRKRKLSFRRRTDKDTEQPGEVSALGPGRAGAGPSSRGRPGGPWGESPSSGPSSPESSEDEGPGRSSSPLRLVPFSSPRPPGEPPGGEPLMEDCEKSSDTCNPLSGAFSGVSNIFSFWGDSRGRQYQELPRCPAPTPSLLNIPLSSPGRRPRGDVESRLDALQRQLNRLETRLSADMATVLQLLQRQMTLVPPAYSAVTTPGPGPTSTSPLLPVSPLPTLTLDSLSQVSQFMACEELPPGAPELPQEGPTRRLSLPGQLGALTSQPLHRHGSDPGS
# Assay type: functional
# applied_conditions: read-out: AC50

| molecule | property_label | result |
| --- | --- | --- |
| Cc1cc(C(C)(C)C)c(O)c(C)c1CC1=NCCN1 | AC50 | > 30 µM |

[in] Checklist item: AC50 tested on Voltage-gated inwardly rectifying potassium channel KCNH2 (Homo sapiens), entry COc1ccc(CCNCC(O)COc2cccc(C)c2)cc1OC (stereo not given) , value?; further: assay procedure not described here
[out] 3.41 µM

[in] Checklist item: AC50 tested on Voltage-gated inwardly rectifying potassium channel KCNH2 (Homo sapiens), entry NC(=O)OCC(COC(N)=O)c1ccccc1 [FELBAMATE] , value?; further: assay procedure not described here
[out] > 30 µM

[in] Checklist item: AC50 tested on Voltage-gated inwardly rectifying potassium channel KCNH2 (Homo sapiens), entry Cc1cccc(Nc2ccccc2C(=O)O)c1C , value?; further: assay procedure not described here
[out] > 30 µM

[in] Checklist item: AC50 tested on Voltage-gated inwardly rectifying potassium channel KCNH2 (Homo sapiens), entry Oc1c(Cl)cc(Cl)c2cccnc12 , value?; further: assay procedure not described here
[out] > 30 µM

* * *

What follows is a collection of AC50 values obtained with Mu-type opioid receptor (Homo sapiens).
Sequence (P35372 whole entry): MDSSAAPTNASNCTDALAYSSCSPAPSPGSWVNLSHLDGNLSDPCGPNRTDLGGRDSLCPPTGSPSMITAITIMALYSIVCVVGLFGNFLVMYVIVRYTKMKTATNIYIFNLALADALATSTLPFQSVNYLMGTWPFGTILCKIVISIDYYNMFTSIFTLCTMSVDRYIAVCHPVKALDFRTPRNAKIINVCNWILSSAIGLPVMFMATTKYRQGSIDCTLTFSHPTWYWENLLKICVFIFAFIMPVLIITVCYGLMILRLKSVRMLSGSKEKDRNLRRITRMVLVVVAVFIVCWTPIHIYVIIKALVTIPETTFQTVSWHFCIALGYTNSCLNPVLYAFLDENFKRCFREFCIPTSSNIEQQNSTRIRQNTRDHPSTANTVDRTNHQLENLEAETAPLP

| compound | AC50 |
| --- | --- |
| Cc1ccccc1OCC(O)CO (centres undefined) | > 30 µM |
| CN(C)[C@@H](c1cccc(O)c1)[C@H]1CCCC[C@H]1O | 0.0059 µM |
| OC(c1ccccc1)(c1ccccc1)C12CC[N+](CCOCc3ccccc3)(CC1)CC2 | 1.07 µM |
| O=C(Nc1ccc(Cl)cc1)Nc1ccc(Cl)c(Cl)c1 | 4.85 µM |
| C=CCCCCCCCCC(=O)O | > 30 µM |

[in] Checklist item: AC50 tested on Mu-type opioid receptor (Homo sapiens), entry Cc1cn([C@H]2C[C@H](N=[N+]=[N-])[C@@H](CO)O2)c(=O)[nH]c1=O , value?; further: assay procedure not described here
[out] > 30 µM

[in] Checklist item: AC50 tested on Mu-type opioid receptor (Homo sapiens), entry CC(C)(C)NCC(O)COc1cccc2c1SCCC2 (centres undefined) , value?; further: assay procedure not described here
[out] > 30 µM

[in] Checklist item: AC50 tested on Mu-type opioid receptor (Homo sapiens), entry COCCCN1CCC(NC(=O)c2cc(Cl)c(N)c3c2OCC3)CC1 [PRUCALOPRIDE] , value?; further: assay procedure not described here
[out] > 30 µM

* * *

Entries annotated with measured AC50
# target_desc: Peroxisome proliferator-activated receptor gamma (Homo sapiens, UniProt P37231); further: assay procedure not described here
# Sequence (P37231 whole entry): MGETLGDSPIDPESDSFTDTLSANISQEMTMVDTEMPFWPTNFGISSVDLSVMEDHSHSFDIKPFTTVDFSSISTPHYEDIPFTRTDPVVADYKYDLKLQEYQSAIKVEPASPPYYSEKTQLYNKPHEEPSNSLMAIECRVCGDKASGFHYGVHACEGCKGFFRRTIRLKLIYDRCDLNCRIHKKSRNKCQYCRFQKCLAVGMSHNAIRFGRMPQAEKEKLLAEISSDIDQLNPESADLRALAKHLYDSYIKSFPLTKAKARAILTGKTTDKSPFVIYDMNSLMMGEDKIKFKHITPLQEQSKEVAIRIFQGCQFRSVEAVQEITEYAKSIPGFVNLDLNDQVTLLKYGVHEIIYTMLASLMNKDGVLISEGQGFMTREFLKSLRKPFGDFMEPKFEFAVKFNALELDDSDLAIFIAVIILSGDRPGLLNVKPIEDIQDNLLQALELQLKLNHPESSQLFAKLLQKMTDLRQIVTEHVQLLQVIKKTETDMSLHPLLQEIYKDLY
# Format: functional

| compound | target_desc | AC50 |
| --- | --- | --- |
| c1cnc(N2CCN(Cc3ccc4c(c3)OCO4)CC2)nc1 [PIRIBEDIL] | Peroxisome proliferator-activated receptor gamma (Homo sapiens, UniProt P37231) | > 30 µM |
| CC(=O)O[C@H]1CC[C@@]2(C)C(=CC[C@@H]3[C@@H]2CC[C@]2(C)C(c4cccnc4)=CC[C@@H]32)C1 [ABIRATERONE ACETATE] | Peroxisome proliferator-activated receptor gamma (Homo sapiens, UniProt P37231) | > 30 µM |
| CCCCCNC(=N)N/N=C/c1c[nH]c2ccc(OC)cc12 [TEGASEROD] | Peroxisome proliferator-activated receptor gamma (Homo sapiens, UniProt P37231) | > 30 µM |
| CCC1(CC)C(=O)NCC(C)C1=O (stereo unspecified) [METHYPRYLON] | Peroxisome proliferator-activated receptor gamma (Homo sapiens, UniProt P37231) | > 30 µM |

[in] Entry CCN1CCN(C(=O)N[C@@H](C(=O)N[C@@H]2C(=O)N3C(C(=O)O)=C(CSc4nnnn4C)CS[C@H]23)c2ccc(O)cc2)C(=O)C1=O [CEFOPERAZONE] has what AC50?
[out] > 30 µM

[in] Entry NCC(CC(=O)O)c1ccc(Cl)cc1 (stereo unspecified) [BACLOFEN] has what AC50?
[out] > 30 µM

[in] Entry COCCCN1CCC(NC(=O)c2cc(Cl)c(N)c3c2OCC3)CC1 [PRUCALOPRIDE] has what AC50?
[out] > 30 µM

[in] Entry CC(C)OC(=O)CCC/C=C\C[C@@H]1[C@@H](CC[C@@H](O)CCc2ccccc2)[C@H](O)C[C@@H]1O [LATANOPROST] has what AC50?
[out] > 30 µM

[in] Entry Cc1c(C(=O)NN2CCCCC2)nn(-c2ccc(Cl)cc2Cl)c1-c1ccc(Cl)cc1 [RIMONABANT] has what AC50?
[out] 17 µM

[in] Entry CNC1Cc2ccccc2N(C)c2ccccc21 (stereo unspecified) [METAPRAMINE] has what AC50?
[out] > 30 µM
